Percent Effect values for the compounds below.
System: Mycobacterium tuberculosis
Assay: Cornell M. t heat shock assay; note: in the data most compounds retested in dose-response had high values
Format: functional, organism-based
Design: dose or concentration left out as unconfirmed
Screen size: about 69,000 compounds; about 950 (1.4%) showed an effect of 50% or more. This excerpt belongs to a sample that is enriched for strong results.
Note: unit % is implicit; provide only the numeric part.

Query: Given the entry COc1ccc(CNCC(C)Oc2ccccn2)cc1.Cl (stereo not given) , what Percent Effect was observed with Mycobacterium tuberculosis?
Response: -11.53

Query: Check `Cc1cc(C(=O)N2CCO[C@H]3[C@H](OCCN(C)C)CC[C@@H]32)c(C)[nH]1.O=C(O)C(F)(F)F` too.
Response: -25.69

Query: Check CC(=O)N1CCN(Cc2ccc(C)o2)CC2(CC(=O)N(C)C2)C1.O=C(O)C(F)(F)F (stereo not given) too.
Response: -2.414

Query: Check CC(C)CC(NC(=O)c1ccco1)c1nnc2ccccn12 (stereo not given) too.
Response: 66.07

Query: Check `COc1ncccc1CN1C[C@@H]2COC[C@]2(CNS(C)(=O)=O)C1.O=C(O)C(F)(F)F.O=C(O)C(F)(F)F` too.
Response: -54.94

Query: Check `O=C(O)C(F)(F)F.O=C1COC2(CCN(Cc3ccco3)CC2)CN1` too.
Response: -45.46

Query: Check `CC(C)c1ncc2c(n1)CN(Cc1nc(Cc3ccccc3)no1)CC2` too.
Response: 21.5

Query: Check `Cl.Cl.O=C(NCc1cncc2c1CCN(C1CCOCC1)C2)c1ccco1` too.
Response: 7.016

Query: Check `CC(C)OCCCN(Cc1cnn(C)c1)Cc1ccccn1.O=C(O)CC(O)(CC(=O)O)C(=O)O` too.
Response: -10.12

Query: Check `COc1cccc(CNCc2nc3ccccc3c(=O)[nH]2)c1` too.
Response: 81.36

* * *

Tested on: Mycobacterium tuberculosis
Experiment: Cornell M. t heat shock assay; note: in the data most compounds retested in dose-response had high values
Type: functional, organism-based
Parameters: dose or concentration left out as unconfirmed
The campaign covered roughly 69,000 compounds. About 950 (1.4%) showed an effect of 50% or more. The list comes from a sample in which strong results are over-represented; it also holds close analogues and randomly drawn compounds.
Percent Effect values for the compounds below.
Don't forget the unit after the value.

See these solved cases before continuing.
Input Smiles | Result
O=C(O)C(F)(F)F.O=C(O)C(F)(F)F.O=C(O)C(F)(F)F.c1ccc(CN2CCC3(CC2)CCN(Cc2cccs2)C3)nc1 | -44.21%
CC(C)(C#N)C(=O)Nc1nccn1Cc1ccc(Br)cc1 | 102.4%
CNC(=O)c1ccc(Cn2ccnc2S(C)(=O)=O)cc1 | 3.305%
Cc1cccc(C(=O)N2C[C@@H](C)[C@@]3(CCN(c4ccsc4)C3=O)C2)n1.O=C(O)C(F)(F)F | 5.09%

Please look at the following compound next.
Query: What Percent Effect value was documented for this compound, `CCOCC(=O)Nc1ccc(-n2ccc(C(N)=O)n2)cc1` ?
Response: 15.42%

* * *

System: Mycobacterium tuberculosis
Experiment: Cornell M. t heat shock assay; note: in the data most compounds retested in dose-response had high values
Type: functional, organism-based
Set-up: dose or concentration left out as unconfirmed
Among all 69,000 compounds or so, about 950 (1.4%) showed an effect of 50% or more. This is one part of a sample in which strong results are shown more often than they occur.
Percent Effect values for the molecules below.
Note: unit % is implicit; provide only the numeric part.

Molecule | Readout Unit | Percent Effect
Cc1cnn(CCNCc2ccc(OCc3csc(C)n3)cc2)c1 | % | 5.493

Query: What Percent Effect value was documented for this molecule, Cc1nc(CN2CCCC2c2ccsc2)nc2ccccc12 (stereo not given) ?
Response: 40.46

Query: Check Cc1noc(C)c1CN(C)C(C)c1cccs1 (stereo not given) too.
Response: 7.19

Query: Check `O=C(CNC(=O)c1ccoc1)NCCOc1ccc2c(c1)CCC2` too.
Response: 12.38

Query: Check `CN(C)C(=O)CN1CCC2(CCN(CC3CC3)CC2)C1=O.O=C(O)C(F)(F)F` too.
Response: -28.35
